protocol details: Inhibition of ABCB1 in multidrug-resistant human SW620/Ad300 cells assessed as increase in reversal of resistance to paclitaxel-induced cytotoxicity by measuring paclitaxel IC50 pre-incubated for 4 hrs followed by paclitaxel addition and measured after 72 hrs by MTT assay (reference value: 4.23 +/- 0.6 uM)
Measured IC50 values are reported for all entries that follow.
Quick note: give the figure in nM, leave out the unit.

Answered examples (6):
COc1ccc(CSc2nc3nc(C)cc(Nc4ccc(F)cc4)n3n2)cc1; 1930
Cc1cc(Nc2cc(F)c(F)cc2F)n2nc(SCc3nc4ccccc4[nH]3)nc2n1; 260
Cc1ccccc1Nc1nc(SCc2cn(Cc3ccc(Cl)cc3)nn2)nc(-c2ccccc2)c1C#N; 36000
Cc1ccc(CSc2nc3nc(C)cc(Nc4ccc(F)cc4)n3n2)cc1; 2040
Cc1cc(Nc2ccccc2)n2nc(SCc3nc4ccccc4[nH]3)nc2n1; 46
Cc1cc(Nc2ccc(O)c(Cl)c2)n2nc(SCc3nc4ccccc4[nH]3)nc2n1; 3220

Recall and state the measured IC50 for `N#Cc1c(Nc2cccc(Cl)c2)nc(SCC(=O)NC(=O)Nc2ccccn2)nc1-c1ccccc1` .
5000

Give the measured IC50 for `Cc1cc(Nc2c(F)cccc2F)n2nc(SCc3nc4ccccc4[nH]3)nc2n1`
790

Supply recorded IC50 for `CCc1cc(Nc2ccc(F)cc2)n2nc(SCc3ccccc3)nc2n1` here.
1610

* * *

tested target: CYP3A4 (Homo sapiens)
Sequence (P08684 whole entry): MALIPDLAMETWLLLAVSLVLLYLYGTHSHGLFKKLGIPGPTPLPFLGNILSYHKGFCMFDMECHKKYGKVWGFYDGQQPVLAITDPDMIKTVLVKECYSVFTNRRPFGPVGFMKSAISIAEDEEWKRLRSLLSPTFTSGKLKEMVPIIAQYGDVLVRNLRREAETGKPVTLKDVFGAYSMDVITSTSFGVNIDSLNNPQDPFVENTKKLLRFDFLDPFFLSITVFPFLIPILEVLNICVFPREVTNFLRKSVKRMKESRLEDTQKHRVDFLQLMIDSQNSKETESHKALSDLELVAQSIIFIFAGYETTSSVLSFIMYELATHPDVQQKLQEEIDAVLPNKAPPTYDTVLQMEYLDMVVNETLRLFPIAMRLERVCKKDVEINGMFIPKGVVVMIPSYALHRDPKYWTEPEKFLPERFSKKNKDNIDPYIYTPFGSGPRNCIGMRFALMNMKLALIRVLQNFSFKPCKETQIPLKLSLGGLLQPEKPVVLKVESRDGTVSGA
protocol details: Activation of CYP3A4 in human liver microsomes at 20 uM after 30 mins in presence of CYP3A4 substrate/NADP+ by fluorescence based assay
Type: ADME
assay conditions: read-out: FC
readout type: fold induction at 0.5 h, 20 µM
I only need the number, thanks.

Report fold induction at 0.5 h, 20 µM, nothing else, for this molecule: `Cc1cc(Nc2ccc(F)cc2)n2nc(SCc3nc4ccccc4[nH]3)nc2n1`
1.06
